Listed binders paired with reported Inhibition rate (%)
# SYSTEM: FAM19A5 protein (Homo sapiens, UniProt Q7Z5A7)
# ASSAY_DETAILS: competitive inhibition ELISA; competitor: coated LRRC4B(36-576)-hFc
Your answer is read as %, so omit the unit and give the number.

See these solved cases before continuing.
- BINDER: "GYTYFTTVTVETLETQPGEE [FB-20]"
  Inhibition rate (%): 77
- BINDER: "GYTYFTTVTVATLETQPGEE [FB-20[A10]]"
  Inhibition rate (%): 19.6
- BINDER: "GYTYFTTVTVEALETQPGEE [FB-20[A11]]"
  Inhibition rate (%): 73.4
- BINDER: "GNTYFTTVTVETLETQPGEE [FB-20[N1]]"
  Inhibition rate (%): 11.9
- BINDER: "GYTYFTTVNVETLETQPGEE [FB-20[N8]]"
  Inhibition rate (%): 2.9

Reported Inhibition rate (%) for GYTYFNTVTVETLETQPGEE [FB-20[N5]] : what is it?
56.1

Which Inhibition rate (%) is listed for GYTYFTTVTNETLETQPGEE [FB-20[N9]] ?
17.5
